For each entry below, report its fold change of affinity value.
- System: T1, Human CD3eg linker (human)
- T1 construct: Single chain: epsilon and gamma subunits of human CD3 joined by a 29-mer linker, Flag-tag at the C-terminus; also called recombinant human CD3
- T1 chain: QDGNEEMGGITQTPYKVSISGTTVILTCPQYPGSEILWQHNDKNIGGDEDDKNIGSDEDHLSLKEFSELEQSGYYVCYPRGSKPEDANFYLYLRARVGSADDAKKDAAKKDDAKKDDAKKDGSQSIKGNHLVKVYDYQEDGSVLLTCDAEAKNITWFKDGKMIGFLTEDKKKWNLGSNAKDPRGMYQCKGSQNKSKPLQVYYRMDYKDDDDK
- Assay explanation: Biacore SPR, vs template H183/L072
Give bare numbers, in fold.

# Binder, Unit annotation, fold change of affinity
data = [
    ("H183/L072 VH I51E (antibody, name in Kabat numbering, V domains shown) VH: QVQLVESGGGLVQPGRSLRLSCAASGFTFSNAWMHWVRQAPGKGLEWVAQEKDKGNAYAAYYAPSVKGRFTISRDDSKNSIYLQMNSLKTEDTAVYYCHYVHYASASTVLPAFGVDAWGQGTTVTVSS VL: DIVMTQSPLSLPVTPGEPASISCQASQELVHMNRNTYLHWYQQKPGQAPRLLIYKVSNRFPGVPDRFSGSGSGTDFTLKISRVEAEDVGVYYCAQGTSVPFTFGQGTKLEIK", "fold", 0),
    ("H183/L072 VH F29E (antibody, name in Kabat numbering, V domains shown) VH: QVQLVESGGGLVQPGRSLRLSCAASGFTESNAWMHWVRQAPGKGLEWVAQIKDKGNAYAAYYAPSVKGRFTISRDDSKNSIYLQMNSLKTEDTAVYYCHYVHYASASTVLPAFGVDAWGQGTTVTVSS VL: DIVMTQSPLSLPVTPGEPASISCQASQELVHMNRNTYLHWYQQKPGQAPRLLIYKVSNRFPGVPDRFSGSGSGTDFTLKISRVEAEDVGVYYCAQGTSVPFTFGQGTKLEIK", "fold", 0.1),
]

Input H183/L072 VH A60N (antibody, name in Kabat numbering, V domains shown) VH: QVQLVESGGGLVQPGRSLRLSCAASGFTFSNAWMHWVRQAPGKGLEWVAQIKDKGNAYAAYYNPSVKGRFTISRDDSKNSIYLQMNSLKTEDTAVYYCHYVHYASASTVLPAFGVDAWGQGTTVTVSS VL: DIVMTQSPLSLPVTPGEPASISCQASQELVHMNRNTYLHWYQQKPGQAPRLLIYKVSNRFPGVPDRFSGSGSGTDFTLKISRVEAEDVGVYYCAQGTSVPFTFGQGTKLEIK , output reported fold change of affinity.
1
